- Tested on: MS2 coat protein
- Assay comment: apparent KD of MS2 coat protein; higher = weaker reporter binding
- Study conditions: Eterna round: R107; input ligand: tryptophan 2.4 mM
Could you label it Satisfied if measured apparent KD of MS2 coat protein is 40 nM or higher, and Not satisfied otherwise?

[
  {
    "Sequence code": "CACUUCAUGUGAGAUACCAGUGCCUUACAUGAGGAUCACCCAUGUCGUAAUGUGGAGAAGCACCCUUGGCAGCUCGCUUCGAGUG [Theo B SS t6]",
    "Study system": "MS2 coat protein",
    "Group": "Satisfied"
  }
]

Is apparent KD of MS2 coat protein for GGGUGCGGCACGGCCGCCACUGCGGUGGUGUGACAUGAGGAUCACCCAUGUUGUCAUGCGGCCCUUAGGACCGGGUGCCGUGCCC [#1 Exclusion - Tryptophan B Attempt #13 (HarryS)] at or above 40 nM?
Satisfied

Param item: UAGUUGCUGACGGCCGCCACUAGAACAUGAGGAUCACCCAUGUAUUCUAGUGGACAUGGGUGGACUAGGACCGGGUCAGCAACAU [(Trp1)-(Ms2)-(T)'-(M)'-(Trp2)_Design9]
Not satisfied

Param item: CGGGUUAGGGCGGCCGCCACUGUGGCUACGGUACAUGAGGAUCACCCAUGUUUGUGGUUGAUCUACAGGACCGGGCCCUGACACG [Geusrean]
Satisfied

Param item: GGUACAUGAGGAUCACCCAUGUAUGGGUACCGAGGACCGGUACGGCCGCCACUCGCAGGACAUGAGGAUCACCCAUGUGCAACCG [SSTA DOUBLE!!! :-D #11]
Satisfied

Param item: UCACGACGGAUGGAUACCAGCGACAUGAGGAUCACCCAUGUAUGAGGAUCAGCCAUGUUAUGCCCUUGGCAGCCACGAAGGUCAU [YYYMULLIN]
Not satisfied

Provenance of the data: the supplement of paper PMC9170038
